Attribution: ChEMBL document CHEMBL3039007

- experimental_system: Solute carrier organic anion transporter family member 1B3 (Homo sapiens)
- Sequence (Q9NPD5 whole entry): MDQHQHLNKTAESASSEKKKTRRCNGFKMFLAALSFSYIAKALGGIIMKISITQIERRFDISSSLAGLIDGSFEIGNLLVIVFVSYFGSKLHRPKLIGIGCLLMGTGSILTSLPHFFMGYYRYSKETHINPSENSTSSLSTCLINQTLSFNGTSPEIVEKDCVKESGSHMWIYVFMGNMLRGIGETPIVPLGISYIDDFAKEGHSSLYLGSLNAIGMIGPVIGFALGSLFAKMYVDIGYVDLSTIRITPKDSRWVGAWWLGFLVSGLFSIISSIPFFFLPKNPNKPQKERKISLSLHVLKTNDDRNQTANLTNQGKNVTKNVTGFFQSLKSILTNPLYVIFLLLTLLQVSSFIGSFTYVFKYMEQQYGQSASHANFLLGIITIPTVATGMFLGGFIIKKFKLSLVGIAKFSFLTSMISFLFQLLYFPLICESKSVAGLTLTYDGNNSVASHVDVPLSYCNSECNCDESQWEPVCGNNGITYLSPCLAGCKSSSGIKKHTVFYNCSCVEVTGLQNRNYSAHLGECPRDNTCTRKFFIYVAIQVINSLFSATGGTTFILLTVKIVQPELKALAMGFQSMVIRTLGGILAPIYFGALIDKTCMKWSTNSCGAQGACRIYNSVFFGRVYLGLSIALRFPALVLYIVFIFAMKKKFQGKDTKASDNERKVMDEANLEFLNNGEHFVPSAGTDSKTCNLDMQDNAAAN
- experimental_context: chinese hamster, cho, 10 µM
# Lookup of reported residual activity keyed by entry
Unit % implied. Number only.

O=C1OCCN1/N=C/c1ccc([N+](=O)[O-])o1 | 94.52
CS(=O)(=O)[O-].C[n+]1ccccc1C=NO [PRALIDOXIME MESYLATE] | 98.72
COc1ccc(CC(=O)c2ccc(O)cc2O)cc1 | 96.22
CN1Cc2c(ccc3c2OCO3)C2C(O)Cc3cc4c(cc3C21)OCO4 (stereo not drawn) [CHELIDONINE (+)] | 82.29
C[C@]12CCC(=O)C=C1CC[C@@H]1[C@@H]2[C@@H](O)C[C@@]2(C)[C@H]1CC[C@]2(O)C(=O)CO [HYDROCORTISONE] | 113.8

Name the reported residual activity value associated with the molecule Cc1c(NC(C)C)c(=O)n(-c2ccccc2)n1C 89.79
